pKi: −log10 of the molar value.
Consider molecules characterized by their pKi with Mu-type opioid receptor (Homo sapiens, UniProt P35372).
Sequence (P35372 whole entry): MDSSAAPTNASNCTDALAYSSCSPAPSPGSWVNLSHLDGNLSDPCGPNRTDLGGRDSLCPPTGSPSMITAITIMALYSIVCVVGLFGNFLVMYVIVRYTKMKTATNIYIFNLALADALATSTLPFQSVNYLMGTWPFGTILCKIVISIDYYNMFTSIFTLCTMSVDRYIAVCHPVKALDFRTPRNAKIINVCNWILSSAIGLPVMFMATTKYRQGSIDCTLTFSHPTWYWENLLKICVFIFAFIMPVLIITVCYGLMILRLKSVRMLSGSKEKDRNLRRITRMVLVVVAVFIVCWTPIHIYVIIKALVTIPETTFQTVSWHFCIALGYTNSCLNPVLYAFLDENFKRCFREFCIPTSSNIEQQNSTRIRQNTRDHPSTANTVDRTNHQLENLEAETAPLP

{"molecular-string": "C[C@@H]1C[C@@](C)(c2cccc(O)c2)[C@@H](C)CN1CCc1ccccc1", "pKi": 7.82}
{"molecular-string": "C[C@H]1CN(CCc2ccccc2)[C@H](CCN)C[C@@]1(C)c1cccc(O)c1", "pKi": 6.11}
{"molecular-string": "C[C@H]1CN(CCc2ccccc2)[C@H](CCc2ccccc2)C[C@@]1(C)c1cccc(O)c1", "pKi": 6.80}
{"molecular-string": "CCCCCCN1C[C@H](C)[C@](C)(c2cccc(O)c2)C[C@H]1CCC", "pKi": 7.33}
{"molecular-string": "CC(C)[C@@H]1C[C@@](C)(c2cccc(O)c2)[C@@H](C)CN1CCc1ccccc1", "pKi": 6.57}
